- test target: NS1 RBD H7N1 (Influenza A virus (avian H7N1; allele B), UniProt Q1PST0 1-73)
- measurement description: competition EMSA; EC50app vs labelled AWFC01
- recorded conditions: protein: recombinant; tags: N-His thrombin-cleaved (vector residues remain); chain copies: 2; label: 5'-32P
pIC50: −log10 of the molar value.

{"columns": ["binder", "pIC50"],
 "data": [
  ["AWFC01 (dsRNA) RNA 1: GGUAACUGUUACAGUUACC RNA 2: GGUAACUGUUACAGUUACC", 8.77]
]}
